- testSystem: T1, human SLC34A2 (human, UniProt O95436 1-690)
- T1 construct: whole, on cells; also called human solute carrier 34 A2; NaPi2b
- T1 sequence (looked up): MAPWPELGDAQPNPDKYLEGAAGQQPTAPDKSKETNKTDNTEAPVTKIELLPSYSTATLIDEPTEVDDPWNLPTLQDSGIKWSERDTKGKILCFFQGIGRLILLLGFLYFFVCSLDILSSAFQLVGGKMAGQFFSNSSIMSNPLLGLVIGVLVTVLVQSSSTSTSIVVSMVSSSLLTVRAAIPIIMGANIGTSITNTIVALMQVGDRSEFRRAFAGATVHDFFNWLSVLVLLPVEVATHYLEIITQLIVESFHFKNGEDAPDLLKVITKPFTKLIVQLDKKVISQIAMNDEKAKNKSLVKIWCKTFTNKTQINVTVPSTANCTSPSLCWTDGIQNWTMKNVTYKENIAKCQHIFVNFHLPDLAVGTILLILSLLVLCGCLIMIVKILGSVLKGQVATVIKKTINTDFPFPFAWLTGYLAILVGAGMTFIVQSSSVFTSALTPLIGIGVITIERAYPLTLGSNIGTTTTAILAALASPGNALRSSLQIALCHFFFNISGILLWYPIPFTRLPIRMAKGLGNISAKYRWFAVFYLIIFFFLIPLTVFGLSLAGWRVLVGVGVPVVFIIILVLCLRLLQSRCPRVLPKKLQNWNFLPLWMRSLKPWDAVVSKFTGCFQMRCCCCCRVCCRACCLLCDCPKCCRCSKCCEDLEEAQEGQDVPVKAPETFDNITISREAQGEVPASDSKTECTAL
- assaySummary: FACS, HEK293/human SLC34A2 cells
Listed next: entries and their corresponding pEC50.
pEC50 field: float, defined as -log10 of concentration (mol/L).

binder	measValue
xi94B10A8 hIgG1 (antibody, V domains shown, chimeric, hIgG1) VH: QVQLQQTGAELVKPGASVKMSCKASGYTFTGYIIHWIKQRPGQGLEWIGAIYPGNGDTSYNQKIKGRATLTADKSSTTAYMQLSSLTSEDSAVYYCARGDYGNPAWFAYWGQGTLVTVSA VL: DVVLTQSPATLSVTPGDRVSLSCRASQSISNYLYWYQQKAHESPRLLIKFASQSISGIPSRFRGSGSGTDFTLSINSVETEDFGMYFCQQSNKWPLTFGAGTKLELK	8.93
xi11F6H8 hIgG1 (antibody, V domains shown, chimeric, hIgG1) VH: EVQLQQSGPELVKPGASVKISCKTSGFTFTEYTMHWVKQSHGKSLEWIGGINPNNGISSYNQNFKGKATLTVDKSSSTAYMELRSLTSEDSTVYYCARCRYYDTSYYDMDYWGQGTSVTVSS VL: DIQMTQTTSSLSASLGDRVTISCRASQDIRNFLNWYQQKPDGTVKLLIYYTSRLHSGVPSRFSGSGSGTDYSLTISNLEEEDIATYFCQQSNTLPWTFGGGTKLEIK	8.72

Proceed to the following item.
Input line: // Input: xi55E5B6D12 hIgG1 (antibody, V domains shown, chimeric, hIgG1) VH: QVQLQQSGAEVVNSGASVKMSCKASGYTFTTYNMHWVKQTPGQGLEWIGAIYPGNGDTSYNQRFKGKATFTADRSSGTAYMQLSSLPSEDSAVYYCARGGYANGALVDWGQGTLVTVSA VL: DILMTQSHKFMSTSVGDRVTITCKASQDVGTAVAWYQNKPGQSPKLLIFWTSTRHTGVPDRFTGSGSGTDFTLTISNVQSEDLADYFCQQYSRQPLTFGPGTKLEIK . Output its pEC50 only.
Output line: 8.74

Where these numbers come from: patent US20240301052A1
